For each entry below, report its TGI value.
System: UO-31 renal
Assay: NCI tumour cell line growth inhibition, 48 h

Use the examples below as a reference point.
compound=c1ccc(C(=NNc2cnc3ccccc3n2)c2ccccn2)cc1 measured="3.25 µM"
compound=COc1ccc(-c2cc(-c3ccc(O)cc3)nc3n[nH]c(N)c23)cc1 measured="28.2 µM"
compound=CN(Cc1ccccc1)C(=NC#N)N(C)Cc1ccccc1 measured="> 100 µM"
compound=O=c1[nH]c(-n2[nH]c3c(c2=O)CCCC3)nc(O)c1-c1ccccc1 measured="> 100 µM"
compound=O=C(NN=C1CCCCC1)c1[nH]c2ccc(F)cc2c1-c1ccccc1 measured="> 100 µM"

List TGI for every entry below, keeping the order given.
1. O=c1[nH]c(=O)n(C2CC(O)C(CO)O2)cc1OCC1CCCCC1 (stereo unspecified)
2. O=C(Nc1nc2ccc(F)cc2s1)c1cccnc1Nc1ccc(Cl)cc1
3. CSc1ncnc2c1ncn2C1OC(CO)C(O)OC1O (stereo unspecified)
4. O=S(=O)(c1ccccc1)C1(CCC2OCCO2)C=CC2(CC1)OCCO2 (stereo unspecified)
5. N#Cc1nc(C(CO)N(Cc2ccccc2)C(=O)O)oc1N (stereo unspecified)

Response:
1: > 100 µM; 2: > 21.5 µM; 3: 31.2 µM; 4: > 100 µM; 5: > 100 µM

Request: Give TGI for O=C1c2ccccc2C(=O)N1C/C=C/CO
Response: > 100 µM

----------
System: NCI/ADR-RES ovarian
Test: NCI tumour cell line growth inhibition, 48 h; in the data active = GI50 below about 0.43 µM; inactive = the rest
Could you please pick one outcome from this set? active, inactive

Request: Field: outcome | Entry: CC[C@@]1(O)C(=O)OCc2c1cc1n(c2=O)Cc2c-1nc1cc3c(cc1c2C)OCO3
Response: active

----------
System: NCI-H23 lung
Test: NCI tumour cell line growth inhibition, 48 h; in the data active = GI50 below about 0.43 µM; inactive = the rest
Select the matching outcome among T for active, F for inactive

Request: Record request — test call for COc1cc(O)c2c(c1)C(=O)c1cc3c(c(O)c1C2=O)C(OC1OC(C)C(O)C(O)C1OC)C(OC)C(C)(O)C3=O (configuration not stated)
Response: F

----------
Tested on: M14 melanoma
Experiment: NCI tumour cell line growth inhibition, 48 h
Record form. Attribute: TGI. Fill in for each entry.

molecule=CCC[CH2][Sn]1([CH2]CCC)[O]C(=O)c2ccc(C)cc2[O]1 test_system="M14 melanoma" measurement_kind=TGI measured="1.84 µM"
molecule="CC(=O)NNC(=O)C1CCCCN1 (stereo unspecified)" test_system="M14 melanoma" measurement_kind=TGI measured="> 100 µM"
molecule=NC1=NCCN1CC(=O)O test_system="M14 melanoma" measurement_kind=TGI measured="> 10000 µM"
molecule="OC1C2CCC1C1C3C=CC(C3)C21 (stereo unspecified)" test_system="M14 melanoma" measurement_kind=TGI measured="> 100 µM"
molecule=COc1ccc(-c2nc(N3CCN(C(=O)C4CCCCC4)CC3)c3c4c(sc3n2)CCCC4)cc1 test_system="M14 melanoma" measurement_kind=TGI measured="> 100 µM"

Dear colleague, could you please provide TGI for the molecules listed below?
1. CSc1ncnc2c1ncn2C1OC(CO)C(O)OC1O (stereo unspecified)
2. O=C1C(Cl)C(c2cc3cc(Br)ccc3nc2Cl)N1c1ccc(Cl)cc1 (stereo unspecified)
3. C=C(CN1CCN(c2cccc(C(F)(F)F)n2)CC1)c1ccc(C(=S)Nc2ccccc2N)cc1
4. C1=NCCNCCNCCN=Cc2ccccc2OCc2cccc(n2)COc2ccccc21
5. O=C(Nc1nc2ccc(F)cc2s1)c1cccnc1Nc1ccc(Cl)cc1
6. Cc1ccc(/C=C2\Cc3cccc(C)c3C2=O)c(C(=O)O)c1

Response:
1: 39.1 µM; 2: 20.9 µM; 3: 41.3 µM; 4: > 100 µM; 5: > 100 µM; 6: > 100 µM

Just for reference, PubChem BioAssay (NCI) is where these values come from.
